System: trypsin
assayProtocol: Stability of the compound assessed as trypsin (unknown origin)-mediated compound degradation by measuring compound remaining at substrate/enzyme ratio of 1600/1 at 25 degC after 60 mins by HPLC analysis
Format: ADME
conditionDetails: human, read-out: Stability
Positions of bridges follow the written chain, without caps; N, C: chain ends. Non-standard residues stand in square brackets, D forms with d. Residues, ends and D or L forms follow the SMILES beside them. R5 = C=CCCC[C@@](C)(N)C(=O)O

compound: CC(=O)N[C@@H](CCCCN)C(=O)N[C@]1(C)CCC/C=C\CCC[C@](C)(C(=O)N[C@@H](CCCCN)C(=O)N[C@@H](CCCCN)C(=O)N[C@]2(C)CCC/C=C\CCC[C@](C)(C(=O)N[C@@H](Cc3c[nH]c4ccccc34)C(=O)N[C@@H](CCCCN)C(N)=O)NC(=O)[C@H](C)NC(=O)[C@H](CCCCN)NC(=O)[C@H](C)NC2=O)NC(=O)[C@H](C)NC(=O)[C@H](CCCCN)NC(=O)[C@H](C)NC1=O (Ac-K[R5]AKA[R5]KK[R5]AKA[R5]WK-NH2; staple (Z) 2-6, 9-13)
remaining at 1 h: > 85%
